test: acute toxicity, mouse
experimental_parameters: in vivo, ip
quantity_measured: LD50 (mg/kg)
Answer format: numeric, mg/kg implied, no suffix.

// query Param item = Cc1ccc(NC(=O)c2nc[nH]c2C)cc1Cl [Example 1] ; retrieve measured LD50.
// result 700

---

test: acute toxicity, rat
experimental_parameters: in vivo, ip
quantity_measured: LD50 (mg/kg)
Field: numeric (mg/kg). Do not append units.

// query Quick one: LD50 for `Cc1ccc(NC(=O)c2nc[nH]c2C)cc1Cl` ?
// result 560
